Tested on: HCT-15
Kindly apply the following: y if GI50 is less than 20 µM, n in every other case.

O=C1OC(c2ccc(O)c(Cl)c2)(c2ccc(O)c(Cl)c2)c2ccc(Br)c3cccc1c23.O=C1OC(c2ccc(O)c(Cl)c2)(c2ccc(O)c(Cl)c2)c2cccc3c(Br)ccc1c23: n
Cc1ccc(N2Cc3c(ccc4ccccc34)OP2(=S)N2CCCC2)cc1 (centres undefined): n
CCSC12CC3c4cccc5c4C(CN5C(=O)c4ccccc4)CC3(O1)N(C)C2=O (centres undefined): n

In: Hello, is GI50 of the following molecule strictly smaller than 20 µM? CC(=O)O[C@@H]1CC[C@@]2(C)C(CC[C@H]3[C@@H]4CC[C@H]([C@H](C)CCc5nc6cc(C)ccc6[nH]5)[C@@]4(C)CC[C@@H]32)C1 (some centres undefined)
Out: n

In: For this molecule, is GI50 lower than 20 µM? COc1ccc(C(O)CNC(=O)c2ccccc2)cc1 (centres undefined)
Out: n

In: Input C[C@H]1ON2CCC[C@@H]2[C@@H]1C(=O)N1C2CC3CCC2(CS1(=O)=O)C3(C)C (some centres undefined) ; condition: GI50 strictly below 20 µM. Does it hold?
Out: n

In: Hello, is GI50 of the following molecule strictly smaller than 20 µM? `CN(C)/C=N/S(=O)(=O)c1nn2c(C=O)c(-c3ccccc3)nc2s1`
Out: y

In: # strict comparison: is reported GI50 < 20 µM? input = COC(=O)C1=C(C)C(=O)[C@H]2C(C(=O)OC)CCCC[C@@H]12 (some centres undefined)
Out: n
